# Test protocol: Phase I multiple-ascending dose (MAD) pharmacokinetics, BID Days 1-4 and single morning dose Day 5
# Assay type: in vivo, human
# Experimental context: human, plasma, po, 100 mg, 100 mg BID PO, fasting, Day 5
Structures can show the parent of a compound that is named as a salt.
Value type: Cmax (ng/mL)
One number for each entry, in ng/mL.

Could you share which Cmax value was measured for O=C(O)c1cccc(CN2CN(C3CCCCC3)C3(CCN(CCCC(=O)c4ccccc4)CC3)C2=O)c1 [the Maleate Salt] ?
71.6

====

# Test protocol: Phase I single-ascending dose (SAD) pharmacokinetics incl. food effect, plasma concentration of the Compound
# Format: in vivo, human
# Experimental context: human, plasma, po, SAD phase, single PO doses; read-out: Median Tmax
Where a name gives a salt, the structure may show the parent alone.
Value type: Tmax

Could you share which Tmax value was measured for O=C(O)c1cccc(CN2CN(C3CCCCC3)C3(CCN(CCCC(=O)c4ccccc4)CC3)C2=O)c1 [the Maleate Salt] ?
~1.1 h

====

# Test protocol: Phase I single-ascending dose (SAD) pharmacokinetics incl. food effect, plasma concentration of the Compound
# Format: in vivo, human
# Experimental context: human, plasma, po, 200 mg, single PO dose 200 mg, fasted, healthy subjects
Where a name gives a salt, the structure may show the parent alone.
Value type: AUC(0-inf) (ng·h/mL)
Answers are plain numbers, in ng·h/mL.

Could you share which AUC(0-inf) value was measured for O=C(O)c1cccc(CN2CN(C3CCCCC3)C3(CCN(CCCC(=O)c4ccccc4)CC3)C2=O)c1 [the Maleate Salt] ?
242

====

# Test protocol: Phase I multiple-ascending dose (MAD) pharmacokinetics, BID Days 1-4 and single morning dose Day 5
# Type: in vivo, human
# Experimental context: human, plasma, po, 50 mg, 50 mg BID PO, fasting, Day 1 (samples collected to 12 h)
# Description: A phase I randomized, double-blind, placebo-controlled, adaptive-design, single-ascending dose (SAD) and multiple-ascending dose (MAD) study was conducted in healthy human subjects to evaluate the safety, tolerability, pharmacokinetics (PK), pharmacodynamics (PD), food effect, and optimal oral dose of 3-((1-cyclohexyl-4-oxo-8-(4-oxo-4-phenylbutyl)-1,3,8-triazaspiro[4.5]decan-3-yl)methyl)benzoic acid maleate (hereinafter, “the Maleate Salt”). […]
Counter-ions that a name gives are not always drawn.
Value type: half-life

Could you share which half-life value was measured for O=C(O)c1cccc(CN2CN(C3CCCCC3)C3(CCN(CCCC(=O)c4ccccc4)CC3)C2=O)c1 [the Maleate Salt] ?
~2 h

====

# Test protocol: Phase I single-ascending dose (SAD) pharmacokinetics incl. food effect, plasma concentration of the Compound
# Type: in vivo, human
# Experimental context: human, plasma, po, 200 mg, single PO dose 200 mg, fasted, healthy subjects
Structures can show the parent of a compound that is named as a salt.
Value type: AUC(0-t) (ng·h/mL)
Give bare numbers, in ng·h/mL.

Could you share which AUC(0-t) value was measured for O=C(O)c1cccc(CN2CN(C3CCCCC3)C3(CCN(CCCC(=O)c4ccccc4)CC3)C2=O)c1 [the Maleate Salt] ?
240

====

# Test protocol: Phase I multiple-ascending dose (MAD) pharmacokinetics, BID Days 1-4 and single morning dose Day 5
# Type: in vivo, human
# Experimental context: human, plasma; 100 mg BID PO, fasting, Day 5; read-out: Clast
Where a name gives a salt, the structure may show the parent alone.
Value type: concentration at 24 h
Output should be the measured figure followed by the unit it is expressed in.

Could you share which concentration at 24 h value was measured for O=C(O)c1cccc(CN2CN(C3CCCCC3)C3(CCN(CCCC(=O)c4ccccc4)CC3)C2=O)c1 [the Maleate Salt] ?
0.28 ng/mL

====

# Test protocol: Phase I single-ascending dose (SAD) pharmacokinetics incl. food effect, plasma concentration of the Compound
# Format: in vivo, human
# Experimental context: human, plasma, po, 10 mg, single PO dose 10 mg, fasted, healthy subjects
Counter-ions that a name gives are not always drawn.
Value type: AUC(0-inf) (ng·h/mL)
Give bare numbers, in ng·h/mL.

Could you share which AUC(0-inf) value was measured for O=C(O)c1cccc(CN2CN(C3CCCCC3)C3(CCN(CCCC(=O)c4ccccc4)CC3)C2=O)c1 [the Maleate Salt] ?
13.1

====

# Test protocol: Phase I single-ascending dose (SAD) pharmacokinetics incl. food effect, plasma concentration of the Compound
# Assay type: in vivo, human
# Experimental context: human, plasma, po, 100 mg, single PO dose 100 mg, fasted, healthy subjects
Structures can show the parent of a compound that is named as a salt.
Value type: Cmax (µg/mL)
Answers are plain numbers, in µg/mL.

Could you share which Cmax value was measured for O=C(O)c1cccc(CN2CN(C3CCCCC3)C3(CCN(CCCC(=O)c4ccccc4)CC3)C2=O)c1 [the Maleate Salt] ?
0.0483

====

# Test protocol: Phase I single-ascending dose (SAD) pharmacokinetics incl. food effect, plasma concentration of the Compound
# Format: in vivo, human
# Experimental context: human, plasma, po, 25 mg, single PO dose 25 mg, fed (high-fat breakfast), healthy subjects; read-out: Tmax
Counter-ions that a name gives are not always drawn.
Value type: Tmax (h)
Give bare numbers, in h.

Could you share which Tmax value was measured for O=C(O)c1cccc(CN2CN(C3CCCCC3)C3(CCN(CCCC(=O)c4ccccc4)CC3)C2=O)c1 [the Maleate Salt] ?
2.2

====

# Test protocol: Phase I single-ascending dose (SAD) pharmacokinetics incl. food effect, plasma concentration of the Compound
# Format: in vivo, human
# Experimental context: human, plasma, po, 300 mg, single PO dose 300 mg, fasted, healthy subjects
# Experimental: A phase I randomized, double-blind, placebo-controlled, adaptive-design, single-ascending dose (SAD) and multiple-ascending dose (MAD) study was conducted in healthy human subjects to evaluate the safety, tolerability, pharmacokinetics (PK), pharmacodynamics (PD), food effect, and optimal oral dose of 3-((1-cyclohexyl-4-oxo-8-(4-oxo-4-phenylbutyl)-1,3,8-triazaspiro[4.5]decan-3-yl)methyl)benzoic acid maleate (hereinafter, “the Maleate Salt”). […]
Where a name gives a salt, the structure may show the parent alone.
Value type: AUC(0-t) (ng·h/mL)
Give bare numbers, in ng·h/mL.

Could you share which AUC(0-t) value was measured for O=C(O)c1cccc(CN2CN(C3CCCCC3)C3(CCN(CCCC(=O)c4ccccc4)CC3)C2=O)c1 [the Maleate Salt] ?
421

====

# Test protocol: Phase I single-ascending dose (SAD) pharmacokinetics incl. food effect, plasma concentration of the Compound
# Format: in vivo, human
# Experimental context: human, plasma, po, 25 mg, single PO dose 25 mg, fed (high-fat breakfast), healthy subjects
Counter-ions that a name gives are not always drawn.
Value type: AUC(0-t) (ng·h/mL)
Answers are plain numbers, in ng·h/mL.

Could you share which AUC(0-t) value was measured for O=C(O)c1cccc(CN2CN(C3CCCCC3)C3(CCN(CCCC(=O)c4ccccc4)CC3)C2=O)c1 [the Maleate Salt] ?
17.6

====

# Test protocol: Phase I single-ascending dose (SAD) pharmacokinetics incl. food effect, plasma concentration of the Compound
# Type: in vivo, human
# Experimental context: human, plasma, po, 10 mg, single PO dose 10 mg, fasted, healthy subjects
Where a name gives a salt, the structure may show the parent alone.
Value type: AUC(0-t) (ng·h/mL)
Answers are plain numbers, in ng·h/mL.

Could you share which AUC(0-t) value was measured for O=C(O)c1cccc(CN2CN(C3CCCCC3)C3(CCN(CCCC(=O)c4ccccc4)CC3)C2=O)c1 [the Maleate Salt] ?
12.9

====

# Test protocol: Phase I single-ascending dose (SAD) pharmacokinetics incl. food effect, plasma concentration of the Compound
# Format: in vivo, human
# Experimental context: human, plasma, po, 100 mg, single PO dose 100 mg, fasted, healthy subjects
Counter-ions that a name gives are not always drawn.
Value type: AUC(0-t) (µg·h/mL)
Numbers only, in µg·h/mL.

Could you share which AUC(0-t) value was measured for O=C(O)c1cccc(CN2CN(C3CCCCC3)C3(CCN(CCCC(=O)c4ccccc4)CC3)C2=O)c1 [the Maleate Salt] ?
0.104

====

# Test protocol: Phase I single-ascending dose (SAD) pharmacokinetics incl. food effect, plasma concentration of the Compound
# Assay type: in vivo, human
# Experimental context: human, plasma, po, 50 mg, single PO dose 50 mg, fasted, healthy subjects
# Description: A phase I randomized, double-blind, placebo-controlled, adaptive-design, single-ascending dose (SAD) and multiple-ascending dose (MAD) study was conducted in healthy human subjects to evaluate the safety, tolerability, pharmacokinetics (PK), pharmacodynamics (PD), food effect, and optimal oral dose of 3-((1-cyclohexyl-4-oxo-8-(4-oxo-4-phenylbutyl)-1,3,8-triazaspiro[4.5]decan-3-yl)methyl)benzoic acid maleate (hereinafter, “the Maleate Salt”). […]
Where a name gives a salt, the structure may show the parent alone.
Value type: AUC(0-inf)
Output should be the measured figure followed by the unit it is expressed in.

Could you share which AUC(0-inf) value was measured for O=C(O)c1cccc(CN2CN(C3CCCCC3)C3(CCN(CCCC(=O)c4ccccc4)CC3)C2=O)c1 [the Maleate Salt] ?
0.0567 µg·h/mL

====

# Test protocol: Phase I single-ascending dose (SAD) pharmacokinetics incl. food effect, plasma concentration of the Compound
# Format: in vivo, human
# Experimental context: human, plasma, po, 25 mg, single PO dose 25 mg, fed (high-fat breakfast), healthy subjects; read-out: T1/2 (converted)
# Protocol: A phase I randomized, double-blind, placebo-controlled, adaptive-design, single-ascending dose (SAD) and multiple-ascending dose (MAD) study was conducted in healthy human subjects to evaluate the safety, tolerability, pharmacokinetics (PK), pharmacodynamics (PD), food effect, and optimal oral dose of 3-((1-cyclohexyl-4-oxo-8-(4-oxo-4-phenylbutyl)-1,3,8-triazaspiro[4.5]decan-3-yl)methyl)benzoic acid maleate (hereinafter, “the Maleate Salt”). […]
Counter-ions that a name gives are not always drawn.
Value type: half-life (h)
One number for each entry, in h.

Could you share which half-life value was measured for O=C(O)c1cccc(CN2CN(C3CCCCC3)C3(CCN(CCCC(=O)c4ccccc4)CC3)C2=O)c1 [the Maleate Salt] ?
7
